Literature compilation of IC50 measurements on Poly [ADP-ribose] polymerase 1 (Homo sapiens).
assay.endpoint: IC50 (nM)

In the examples that follow, each entry is paired with its recorded IC50.
[[record]]
compound = "N#Cc1cccc2c1[nH]c(=O)n2C1CCN(C(=O)CCCc2nc3ccccc3c(=O)[nH]2)CC1"
assay_endpoint = "IC50"
measured = 464

[[record]]
compound = "Cn1ccc2c(=O)[nH]c(N3CCN(c4cnccn4)CC3)nc21"
assay_endpoint = "IC50"
measured = 318

[[record]]
compound = "CCCCN1CCN(c2cccc3c2Cc2c-3[nH]c(=O)c3cccnc23)CC1"
assay_endpoint = "IC50"
measured = 25.5

[[record]]
compound = "COCCOc1ccc(C(=O)C2CCN(CC(=O)NCc3nc4c(c(=O)[nH]3)COCC4)CC2)cc1"
assay_endpoint = "IC50"
measured = 6800


A. O=C(CCCc1nc2ccccc2c(=O)[nH]1)N[C@H]1CC[C@H](Oc2ccc(F)cc2)CC1
B. CC1Nc2cc(F)cc3c(=O)[nH]nc(c23)C1c1ccc(Cl)cc1F (centres unmarked)
# input Which item exceeds the other in IC50, A or B ? Identify your pick by its label.
# output A
(A: 1710 nM, B: 9 nM)

A. Cn1ccc2c(=O)[nH]c(N3CCOCC3)nc21
B. CN1CC2=C(C1)CN(C(=O)c1cc(Cc3n[nH]c(=O)c4ccccc34)ccc1F)C2
C. CC1(c2ccc(-c3[nH]c4cc(F)cc5c4c3CONC5=O)cc2F)CCCN1 (single isomer, unassigned)
# input Hi! Can you put these in order of IC50, lowest number first? # output: labels, in the requested order
# output C, B, A
